- TGT: T1, Taf14FL (full length Taf14, aa 1-244) (S. cerevisiae, UniProt P35189 1-244)
- T1 construct: Taf14, S. cerevisiae, UniProt P35189, aa 1-244; uniformly 15N-labelled for NMR; also called transcription initiation factor subunit 14
- T1 sequence (looked up): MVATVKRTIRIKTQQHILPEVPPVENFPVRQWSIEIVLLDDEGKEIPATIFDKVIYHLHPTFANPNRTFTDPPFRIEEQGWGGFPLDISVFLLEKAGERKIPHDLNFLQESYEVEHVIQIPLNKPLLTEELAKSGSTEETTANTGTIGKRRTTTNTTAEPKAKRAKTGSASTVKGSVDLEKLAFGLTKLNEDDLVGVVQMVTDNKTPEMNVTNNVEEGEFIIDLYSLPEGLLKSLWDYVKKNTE
- ASSAY_OVERVIEW: other fluorescence titration; tryptophan fluorescence of Taf14FL with Yng1EBM in the presence of H3K9cr peptide at a 1:10 Taf14FL:H3K9cr molar ratio; apparent Kd, 1:1 stoichiometry
- CONDITION: both partners purified
PROPERTY_NAME: Kd (nM)
// return numeric value only (unit: nM, not printed)

The value of Kd measured for the binder Ac-EPKLLLKINLKK-NH2 (also called Yng1 peptide; source: synthetic peptide (Synpeptide)) [Yng1EBM peptide (aa 113-124 of Yng1), Ac-EPKLLLKINLKK-NH2] turned out to be 900

Data origin: paper PMC11196586
